target: T1, SG115v2 (human, UniProt P01857 1-328 = IgG part); test: ELISA, OD405 against dose (ng/mL, log axis 1-100)
T1 construct: Carries the CH3 modifications of SG115 (Leu428, Ala434, Arg438, Glu440, EU); Construct used in the ELISA is not described beyond the constant region; also called modified IgG heavy chain constant region SG115v2
T1 sequence (P01857 other isoform, or with tags, fused parts or gaps limits assumed): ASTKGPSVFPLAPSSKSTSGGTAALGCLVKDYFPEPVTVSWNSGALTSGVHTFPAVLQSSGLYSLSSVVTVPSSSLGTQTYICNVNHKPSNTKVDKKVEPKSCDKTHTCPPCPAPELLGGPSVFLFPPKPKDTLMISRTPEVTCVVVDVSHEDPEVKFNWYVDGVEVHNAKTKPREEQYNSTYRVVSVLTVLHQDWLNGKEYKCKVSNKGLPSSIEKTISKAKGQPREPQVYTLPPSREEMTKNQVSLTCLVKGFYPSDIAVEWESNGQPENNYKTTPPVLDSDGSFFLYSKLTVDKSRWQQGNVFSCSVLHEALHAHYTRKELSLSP

binder | binding result
SKA0028 (antibody, V domains shown, Recombinant rabbit monoclonal from B-cell cloning, expressed in FreeStyle 293-F cells; the first screen used B-cell culture supernatant; also called Anti-SG115 Antibody; rabbit Anti Fc-Mutation Antibody) VH: QSVEESGGRLVTPGTPLTLTCTASGFTISSYHMSWVRQAPGKGLEWIGIIHGSGNMWYASWAKGRFTISRTSTTVDLEITSPTTEDTATYFCARIRFWASSNYYYFYLWGQGTLVTVSS VL: ALVMTQTPASVSEPVGGTVTINCQASQNIYSNLAWYQQKPGQRPRLLIYGASNLESGVPSRFRGSGSGTEFTLTISDLECADAATYYCQSAYWGNNNDGAFGGGTEVVVKG | binds
